System: A498 renal
Test: NCI tumour cell line growth inhibition, 48 h
Assign TGI to each entry below.

Query the reported TGI for A498 renal; item: `O=C(CCl)N1c2ccccc2Sc2c1ccc1ccccc21` 25.9 µM

Look up TGI with A498 renal for this compound: `CC(=O)c1cc([N+](=O)[O-])ccc1OCC(=O)O` > 100 µM

For A498 renal, provide TGI of Cc1nnc2n1-c1ccccc1C(=S)N1CSCC21 (configuration not stated) please. > 100 µM

Observed TGI on A498 renal for `O=[N+]([O-])c1ccc2nc(/C=C(\O)c3ccc(F)cc3)c(/C=C(\O)c3ccc(F)cc3)nc2c1` , please. 52.3 µM

Find the measured TGI: item CC(CNC(Cc1ccccc1)c1ccccc1)NC(Cc1ccccc1)c1ccccc1 (configuration not stated) , target or system A498 renal. 5.02 µM

For A498 renal, provide TGI of `Cc1ccc(S(N)(=O)=O)cc1` please. > 1000 µM

Kindly state the measured TGI obtained for `COC(=O)c1csc(-c2nc(CCNC(=O)OC(C)(C)C)sc2Br)n1` with A498 renal. > 100 µM

Given the entry CCCCOC(=O)C(O)Cc1ccoc1 (configuration not stated) , what TGI was observed with A498 renal? > 100 µM

Notebook: pull reported TGI for A498 renal, entry `COc1ccccc1N1CCN(Cn2c(=O)oc3cccnc32)CC1` > 100 µM

API: value(readout=TGI, system=A498 renal) for record `COCc1cc2c(cc1/C=C/[N+](=O)[O-])OCO2` 30.8 µM

Notebook: pull reported TGI for A498 renal, entry `O=C1CC[C@@H](S(=O)(=O)c2ccccc2)[C@@H](/C=C/c2ccccc2)O1` > 100 µM

Please state recorded TGI (tested on A498 renal) of CC(=O)O[C@@H]1CC2C(C)(C)CCCC2(C)C2=C1C(=O)C(C(C)C)=CC2=O (some centres not stated) 2.35 µM

Item: `Cc1c(NC(=S)Nc2ccc(Cl)cc2)c(=O)n(-c2ccccc2)n1C` Test system: A498 renal Read-out: TGI Value: ? > 100 µM

// lookup TGI | system=A498 renal | key= `COc1ccc(CCNC(=O)Cc2cc(OC)c(OC)cc2CO)cc1OC` > 100 µM

Identify the measured TGI of `CN(C)CCOc1ccc2c(c1)C/C(=C/c1ncc([N+](=O)[O-])n1C)C2=O` for A498 renal. 5.54 µM

TGI of CCOC(=O)CCC(NC(=O)c1ccc(N2CCN(c3c(C)nc(N)nc3N)CC2)cc1)C(=O)OCC (configuration not stated) on A498 renal? > 100 µM

Item `Cc1nc2c(sc3nc4ccccc4n32)c(=O)[nH]1` with A498 renal - TGI? > 100 µM

Can you look up TGI on A498 renal for COc1cccc(C2c3cc4c(cc3OC(O)(CO)C2C(=O)O)OCO4)c1 (configuration not stated) (tested in a mixture with another compound) ? > 100 µM

Report TGI for CC1=C(O)C(=O)C2C(=O)C1C(C)C2c1ccc(Cl)cc1 (configuration not stated) tested on A498 renal. > 100 µM

// fetch A498 renal TGI for `Nc1cc(N)c(N)cc1N` 4.67 µM

Param readout= TGI; system= A498 renal; entry= `C[Si](C)(OCCS(=O)(=O)O)C1S(=O)(=O)OCCOS1(=O)=O` ; returns value. > 100 µM

Lab note: need TGI for COc1ccc2c3c1OC1c4[nH]c5ccccc5c4CC4(O)C(C2)N(C)CCC314 (configuration not stated) on A498 renal, anyone have it? 31.6 µM

# credit: PubChem BioAssay (NCI)
